Measured IC50 values are reported for all entries that follow.
target: recombinant autotaxin (Homo sapiens); experiment: Autotaxin test (enzyme test), Amplex Red fluorescence; conditions: IC50 ranges; LPC 75 μM; read-out: Autotaxin inhibition IC50

COc1ccc(Cl)cc1NC(=O)CN1CCc2nc3ccccc3c(NC3CCN(C)CC3)c2C1 [Compound 1] = 0.1 to 1 µM
COc1ccc(Cl)cc1NC(=O)CN1CCc2nc3ccccc3c(NCC(=O)N3CCCCC3)c2C1 [Compound 13] = 0.1 to 1 µM
COc1ccc(Cl)cc1NC(=O)CN1CCc2nc3ccccc3c(NCC(=O)N3CCCC3)c2C1 [Compound 12] = 0.1 to 1 µM
COc1ccc(Nc2c3c(nc4ccccc24)CCN(CC(=O)Nc2cc(Cl)ccc2OC)C3)cc1 [Compound 24] = > 1 µM
COc1ccc(Cl)cc1NC(=O)CN1CCc2nc3ccccc3c(NCC(=O)N(C)C)c2C1 [Compound 9] = 0.1 to 1 µM
COc1ccc(Cl)cc1NC(=O)CN1CCc2nc3ccccc3c(NCC(=O)NC3CCCCC3)c2C1 [Compound 15] = > 1 µM
COc1ccc(Cl)cc1NC(=O)CN1CCc2nc3ccccc3c(NCC(=O)N3CCN(Cc4ccccc4)CC3)c2C1 [Compound 19] = 0.1 to 1 µM
COc1ccc(Cl)cc1NC(=O)CN1CCc2nc3ccccc3c(Nc3cccnc3)c2C1 [Compound 21] = > 1 µM

Q: If you can, please state the reported IC50 value of COc1ccc(Cl)cc1NC(=O)CN1CCc2nc3ccccc3c(NCCN(C)C)c2C1 [Compound 5] .
A: 0.1 to 1 µM

Q: If you can, please state the reported IC50 value of CCN(CC)C(=O)CNc1c2c(nc3ccccc13)CCN(CC(=O)Nc1cc(Cl)ccc1OC)C2 [Compound 18] .
A: 0.1 to 1 µM

Q: If you can, please state the reported IC50 value of COc1ccc(Cl)cc1NC(=O)CN1CCc2nc3ccccc3c(NCC(=O)N3CCOCC3)c2C1 [Compound 14] .
A: 0.1 to 1 µM

Q: If you can, please state the reported IC50 value of COc1ccc(Cl)cc1NC(=O)CN1CCc2nc3ccccc3c(Nc3ccccn3)c2C1 [Compound 23] .
A: > 1 µM

Q: If you can, please state the reported IC50 value of COc1ccc(Cl)cc1NC(=O)CN1CCc2nc3ccccc3c(NCc3nc4ccccc4[nH]3)c2C1 [Compound 11] .
A: > 1 µM

Q: If you can, please state the reported IC50 value of COc1ccc(Cl)cc1NC(=O)CN1CCc2nc3ccccc3c(N3CCN(CCO)CC3)c2C1 [Compound 10] .
A: 0.1 to 1 µM

Q: If you can, please state the reported IC50 value of COc1ccc(Cl)cc1NC(=O)CN1CCc2nc3ccccc3c(NCC(=O)N3CCN(C(C)C)CC3)c2C1 [Compound 17] .
A: 0.1 to 1 µM

Q: If you can, please state the reported IC50 value of COc1ccc(Cl)cc1NC(=O)CN1CCc2nc3ccccc3c(Nc3ccccc3)c2C1 [Compound 22] .
A: > 1 µM
